Can you tell me IC50 for the items I'm about to list?
- Assay target: M1-family alanyl aminopeptidase (Plasmodium falciparum 3D7)
- Measurement notes: PfM1AAP aminopeptidase inhibitors, dose response, counter-screen for PfM17LAP inhibitor project, biochemical, QFRET, set 3 (AID 602315)
- Recorded conditions: recombinant PfM1AAP, H-Leu-NHMec fluorogenic cleavage
Results filed as inconclusive are left out.

[in] Quick one: IC50 of `CCCOc1ccc(CC(=O)NO)cc1` ?
[out] 16.7 µM

[in] Ok, now CCC(C)Oc1ccc(CC(=O)NO)cc1 (centres undefined)
[out] 20.2 µM

[in] Same question, `CCCCOc1cccc(CC(=O)NO)c1` this time
[out] 26 µM

[in] Another molecule to check: CCCCOc1ccc(C(C)C(=O)NO)cc1 (centres undefined)
[out] 28.2 µM

Provenance of the data: PubChem BioAssay AID602315
